Hey, just so you know, these numbers are from PubChem BioAssay (NCI).

System: HL-60(TB) leukemia
Experiment: NCI tumour cell line growth inhibition, 48 h
If the reported TGI equals or exceeds 70 µM, assign label 1. If not, assign label 0.

Cc1cccnc1/N=C/c1c(O)n(C)c(=O)[nH]c1=O label 1
COc1ccc(/C=C2\N=C(c3ccccc3)N(N=C3NC(=O)CC(=O)N3)C2=O)cc1 label 1
O=C1/C(=C/c2ccc(Cl)cc2)N=C(c2ccccc2)N1CCc1cccs1 label 1
Cc1ccc(-n2[nH]nc(C#N)c2=O)cc1 label 1
COc1cc(C2=C(C#Cc3ccccc3)COC2=O)cc(OC)c1OC label 0
COCCCNC(=O)CC(=O)NCCCOC label 1
CCCCCCCCCCCCCC[n+]1ccc2c(C)c3c(c(C)c2c1)c1cc(O)ccc1n3CC label 0
Cn1c2ccccc2c2c(=O)[nH]c(=O)[nH]c21 label 1
O=C1CCCC/C1=C\c1ccc(Br)cc1 label 0
